- targetSystem: ScSho1
- assayComment: SPOT peptide array binding signal intensity (averaged, normalized) (arbitrary units (background-subtracted, floor 0; scale differs between SH3 domains)); higher = stronger binding of the SH3 domain to the peptide
So basically, the class depends on measured SPOT peptide array binding signal intensity, and the ranges are I: < 100; II: ≥ 100 and < 900; III: ≥ 900

RMVRRRPLRVQFSAR III
LASNSPPVYPKRIRH I
NMLKKKPLKKPLKRF III
ISNFVPPNLPMRRFK I
NNQRRKPLLLNIGDH II

Hi there! Could you help me figure out the category for VRVKKRPLIRPLNSS please?
II

Which class is correct for the following binder? DRIRMFIRFPKFLLE
II

Exam item: assign IHTRRPSSTSQYLIR to the correct category.
II
